- Tested on: M19-MEL
- PROTOCOL_DESCRIPTION: NCI tumour cell line growth inhibition, 48 h
Activity calls are given as the source filed them. Rule as the data show it: active = GI50 up to about 1.1 µM and inactive = higher.
MEASUREMENT_LABEL: GI50

Example entries begin here.
* O=c1c2cc(-c3ccccc3)sc2nc2sc(-c3ccccc3)nn12 | > 100 µM (inactive)
* CCOc1ccccc1NC(=O)C1=C(C)NC(C)=C(C(=O)Nc2ccccc2OCC)C1c1ccc([N+](=O)[O-])cc1 | > 100 µM (inactive)
* O=C(O)/C(=C/c1c(O)ccc2ccccc12)c1csc(-c2nc(/C(=C\c3c(O)ccc4ccccc34)C(=O)O)cs2)n1 | 6.17 µM (inactive)
* C[C@H](OCc1ccccc1)C(=O)N1CCS(=O)(=O)N2CCC[C@@H]2C1=O | > 100 µM (inactive)
* O=C(O)CS | > 100 µM (inactive)
* O=CNc1cccc2c3c([nH]c12)CCCCCC3 | > 100 µM (inactive)
* CCC12CCC[C@@]13C=C[C@H](O3)C(C)(C)C2=O (some centres undefined) | > 100 µM (inactive)
* COc1cc(/C=N/N=C(\N)NO)c([N+](=O)[O-])cc1OC | 31.9 µM (inactive)

Now for the molecule whose GI50 we want.
Field request: GI50 | item: FC(F)(F)c1ccccc1C1SCc2nc3ccccc3n21 (centres undefined)
43.3 µM (inactive)

The origin of these recorded values is ChEMBL document CHEMBL1201862.
